test system: Liver; assay: Metabolic stability in human liver microsomes assessed as metabolic rate per mg protein preincubated for 5 mins followed by NADPH addition measured up to 30 mins by LC-MS/MS analysis; type: ADME, microsome; conditions: 0.5 h
observable: Drug metabolism (nmol/min/mg)
Supply the numeric figure in nmol/min/mg, leaving out any unit text.

compound: CCCn1c(=O)c2[nH]c(-c3cnn(CC4CCN(c5ccc(OC(F)(F)F)cc5)C4)c3)nc2n(CCC)c1=O (stereo not given)
measured result: 0.16
//
compound: CCCn1c(=O)c2[nH]c(-c3cc(OCC4CC(=O)N(c5ccc(C(F)(F)F)cc5)C4)no3)nc2n(CCC)c1=O (stereo not given)
measured result: 0.07
//
compound: CCCn1c(=O)c2[nH]c(-c3cnn(CC4CC(=O)N(c5ccc(OC)cc5)C4)c3)nc2n(CC)c1=O (stereo not given)
measured result: 0.11
//
compound: CCCn1c(=O)c2[nH]c(-c3cnn(C(C)C4CC(=O)N(c5cccc(C(F)(F)F)c5)C4)c3)nc2n(CCC)c1=O (stereo not given)
measured result: 0.2

Kindly consider the entry below.
Query :: Given CCCn1c(=O)c2[nH]c(-c3cnn(CC4CC(=O)N(c5cccc(C(F)(F)F)c5)C4)c3)nc2n(CCC)c1=O (stereo not given) , state its recorded Drug metabolism.
Result :: 0.18

---

Entries annotated with measured Drug metabolism
system: Liver; experiment: Metabolic stability in mouse liver microsomes assessed as metabolic rate per mg protein preincubated for 5 mins followed by NADPH addition measured up to 30 mins by LC-MS/MS analysis; type: ADME, microsome; conditions: 0.5 h
Kindly provide the numeric value in nmol/min/mg only, without the unit symbol.

compound: CCCn1c(=O)c2[nH]c(-c3cnn(CC4CC(=O)N(c5cccc(F)c5)C4)c3)nc2n(CC)c1=O (stereo not drawn)
observable: Drug metabolism
measured result: 0.29

compound: CCCn1c(=O)c2[nH]c(-c3cnn(CC4CCN(c5ccc(OC(F)(F)F)cc5)C4=O)c3)nc2n(CCC)c1=O (stereo not drawn)
observable: Drug metabolism
measured result: 0.03

compound: CCCn1c(=O)c2[nH]c(-c3cnn(CC4CCN(c5ccc(C)cc5)C4)c3)nc2n(CCC)c1=O (stereo not drawn)
observable: Drug metabolism
measured result: 0.38

Query :: Param item = CCCn1c(=O)c2[nH]c(-c3cnn(CC4CC(=O)N(c5ccc(C(F)(F)F)cc5)C4)c3)nc2n(CCC)c1=O (stereo not drawn) ; retrieve measured Drug metabolism.
Result :: 0.16

Query :: Would you mind telling me what Drug metabolism value was observed for CCCn1c(=O)c2[nH]c(-c3cnn(CC4CC(=O)N(c5ccc(C#N)cc5)C4)c3)nc2n(CCC)c1=O (stereo not drawn) ?
Result :: 0

Query :: // Drug metabolism lookup, key: CCCn1c(=O)c2[nH]c(-c3cnn(CC4CC(=O)N(c5cccc(C(F)(F)F)c5)C4)c3)nc2n(CC)c1=O (stereo not drawn)
Result :: 0.49

Query :: Reported Drug metabolism, compound CCCn1c(=O)c2[nH]c(-c3cnn(CC4CCN(c5cccc(OC)c5)C4)c3)nc2n(CCC)c1=O (stereo not drawn) : ____
Result :: 0.67

Query :: Bench note: what Drug metabolism did CCCn1c(=O)c2[nH]c(-c3cnn(CC4CC(=O)N(c5ccc(C)cc5)C4)c3)nc2n(CCC)c1=O (stereo not drawn) show?
Result :: 0.25

---

Collected Drug metabolism values appear next to each entry.
test system: Liver; assay: Metabolic stability in human liver microsomes assessed as metabolic rate per mg protein preincubated for 5 mins followed by NADPH addition measured up to 30 mins by LC-MS/MS analysis; type: ADME, microsome; conditions: 0.5 h
Field: numeric (nmol/min/mg). Do not append units.

compound: CCCn1c(=O)c2[nH]c(-c3cnn(CC4CCN(c5ccc(OC(F)(F)F)cc5)C4=O)c3)nc2n(CCC)c1=O (stereo not given)
unit abbreviation: nmol/min/mg
Drug metabolism: 0.02

compound: CCCn1c(=O)c2[nH]c(-c3ccc(OCC4CC(=O)N(c5ccc(C(F)(F)F)cc5)C4)cc3)nc2n(CCC)c1=O (stereo not given)
unit abbreviation: nmol/min/mg
Drug metabolism: 0.05

compound: CCCn1c(=O)c2[nH]c(-c3cnn(CC4CCN(c5cccc(OC)c5)C4)c3)nc2n(CCC)c1=O (stereo not given)
unit abbreviation: nmol/min/mg
Drug metabolism: 0.78

Query :: What does the record list as Drug metabolism for CCCn1c(=O)c2[nH]c(-c3ccc(OCC4CC(=O)N(c5cccc(C(F)(F)F)c5)C4)cc3)nc2n(CCC)c1=O (stereo not given) ?
Result :: 0.09

Query :: Look up Drug metabolism for this compound: CCCn1c(=O)c2[nH]c(-c3cnn(CC4CC(=O)N(c5ccc(C#N)cc5)C4)c3)nc2n(CCC)c1=O (stereo not given)
Result :: 0.15

Query :: Returns the measured Drug metabolism for the input compound. Input: CCCn1c(=O)c2[nH]c(-c3cnn(CC4CC(=O)N(c5ccc(C(F)(F)F)cc5)C4)c3)nc2n(CC)c1=O (stereo not given)
Result :: 0.08

Query :: What does the data say about its Drug metabolism? Entry: CCCn1c(=O)c2[nH]c(-c3cnn(CC4CC(=O)N(c5cccc(C)c5)C4)c3)nc2n(CCC)c1=O (stereo not given)
Result :: 0.18

Query :: Which Drug metabolism reading was recorded for the compound CCCn1c(=O)c2[nH]c(-c3cnn(CCC4CC(=O)N(c5cccc(C(F)(F)F)c5)C4)c3)nc2n(CCC)c1=O (stereo not given) ?
Result :: 0.14

Query :: Given the compound CCCn1c(=O)c2[nH]c(-c3cnn(CC4CC(=O)N(c5cccc(OC(F)(F)F)c5)C4)c3)nc2n(CCC)c1=O (stereo not given) , what is its reported Drug metabolism?
Result :: 0.23

Query :: Please report the recorded Drug metabolism for CCCn1c(=O)c2[nH]c(-c3cnn(CC4CC(=O)N(c5cccc(F)c5)C4)c3)nc2n(CC)c1=O (stereo not given) .
Result :: 0.06

Source listed as ChEMBL document CHEMBL3994582.
